Listed next: entries and their corresponding t½ Ratio of pH 7.4 to pH 5.0.
- ASSAY_TARGET: SARS-COV-2 RBD-MMH (SARS-CoV-2)
- TEST_DETAILS: SPR 37C
The response must contain the number and no unit.

Some binders with recorded t½ Ratio of pH 7.4 to pH 5.0:
| BINDER | t½ Ratio of pH 7.4 to pH 5.0 |
| --- | --- |
| mAb15157 (antibody, V domains shown) VH: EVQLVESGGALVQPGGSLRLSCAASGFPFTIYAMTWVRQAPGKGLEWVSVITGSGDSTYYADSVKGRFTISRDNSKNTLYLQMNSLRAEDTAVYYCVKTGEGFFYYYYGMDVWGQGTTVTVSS VL: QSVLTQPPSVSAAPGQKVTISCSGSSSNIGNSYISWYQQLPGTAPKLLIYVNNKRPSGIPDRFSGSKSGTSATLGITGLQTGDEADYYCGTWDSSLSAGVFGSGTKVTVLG | 1.7 |
| mAb15151 (antibody, V domains shown) VH: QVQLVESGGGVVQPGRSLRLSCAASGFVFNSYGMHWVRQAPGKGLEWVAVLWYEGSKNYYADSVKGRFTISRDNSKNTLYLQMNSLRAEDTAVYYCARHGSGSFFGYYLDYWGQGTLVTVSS VL: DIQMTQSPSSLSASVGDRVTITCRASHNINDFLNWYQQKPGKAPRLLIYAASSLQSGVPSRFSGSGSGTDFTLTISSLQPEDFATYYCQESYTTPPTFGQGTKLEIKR | 0.6 |

Next binder, please.
Short answer for mAb15166 (antibody, V domains shown) VH: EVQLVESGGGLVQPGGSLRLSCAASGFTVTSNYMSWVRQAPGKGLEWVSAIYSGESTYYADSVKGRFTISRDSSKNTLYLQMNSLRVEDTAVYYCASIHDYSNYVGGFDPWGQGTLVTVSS VL: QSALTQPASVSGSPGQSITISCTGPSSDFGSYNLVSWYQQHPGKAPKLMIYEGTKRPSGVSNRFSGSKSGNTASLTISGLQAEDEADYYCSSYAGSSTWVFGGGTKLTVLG : t½ Ratio of pH 7.4 to pH 5.0 was 1.2
